tested on: field violet (Viola arvensis); assay: Test D pre-/postemergence controlled growth environment herbicide test; format: in vivo; conditions: Preemergence, 125 g ai/ha, scale 0 to 100
Below: a set of entries, each annotated with reported Plant response rating.
API note: the answer field is a bare number with no unit suffix.

Cc1cc(=O)n(-c2ccc(C(F)(F)F)cc2)nc1Cc1ccnc(C(F)(F)F)c1; 90
Cc1cc(=O)n(-c2ccc(F)cc2)nc1Oc1ccnc(C(F)(F)F)c1; 95
COc1cc(=O)n(-c2ccc(F)cc2)nc1Cc1ccnc(C(F)(F)F)c1; 90

Now turn to the next molecule.
**Q:** Reported Plant response rating, molecule Cc1cc(=O)n(-c2ccc(F)cc2)nc1Cc1ccnc(C(F)(F)F)c1 : ____
**A:** 90

// data source = patent US10202361B2
